Conditions: in cyclohexane, 288.15 K
Recorded endpoint: solubility (mole fraction)
Reply briefly: the number, and no unit.

So, `CO[C@@]1(NC(=O)CSCC#N)C(=O)N2C(C(=O)[O-])=C(CSc3nnnn3C)CS[C@@H]21.[Na+]` ? Its solubility (mole fraction) was 2.1e-06

###

Conditions: in n-butanol, 308.15 K
Recorded endpoint: solubility (mole fraction)
Kindly provide the number alone.

Entry under test: `CO[C@@]1(NC(=O)CSCC#N)C(=O)N2C(C(=O)[O-])=C(CSc3nnnn3C)CS[C@@H]21.[Na+]` . Its solubility (mole fraction) was 0.000152

###

Settings: in ethyl acetate, 278.15 K
Recorded endpoint: solubility (mole fraction)
I'd appreciate a reply containing only the number, no unit.

Record `CO[C@@]1(NC(=O)CSCC#N)C(=O)N2C(C(=O)[O-])=C(CSc3nnnn3C)CS[C@@H]21.[Na+]` . Reported solubility (mole fraction): 5.31e-05

###

Conditions: in ethyl acetate, 308.15 K
Recorded endpoint: solubility (mole fraction)
Returns: the value as a bare number; no unit string appended.

In plain terms, `CO[C@@]1(NC(=O)CSCC#N)C(=O)N2C(C(=O)[O-])=C(CSc3nnnn3C)CS[C@@H]21.[Na+]` has a documented solubility (mole fraction) of 0.000168

###

Details: in n-butanol, 283.15 K
Recorded endpoint: solubility (mole fraction)
Give your answer as a number; write no unit.

Recorded solubility (mole fraction) (compound `CO[C@@]1(NC(=O)CSCC#N)C(=O)N2C(C(=O)[O-])=C(CSc3nnnn3C)CS[C@@H]21.[Na+]` ): 5.69e-05

###

Details: in n-pentanol, 293.15 K
Recorded endpoint: solubility (mole fraction)
# answer = number (no unit)

Just so you know, measured solubility (mole fraction) for `CO[C@@]1(NC(=O)CSCC#N)C(=O)N2C(C(=O)[O-])=C(CSc3nnnn3C)CS[C@@H]21.[Na+]` came out at 5.84e-05

###

Conditions: in n-pentanol, 313.15 K
Recorded endpoint: solubility (mole fraction)
API doc: respond with a numeric literal and nothing else, no unit.

Entry `CO[C@@]1(NC(=O)CSCC#N)C(=O)N2C(C(=O)[O-])=C(CSc3nnnn3C)CS[C@@H]21.[Na+]` — recorded solubility (mole fraction) = 0.000113

###

Details: in n-hexane, 278.15 K
Recorded endpoint: solubility (mole fraction)
The response must contain the number and no unit.

Note to self: solubility (mole fraction) recorded for `CO[C@@]1(NC(=O)CSCC#N)C(=O)N2C(C(=O)[O-])=C(CSc3nnnn3C)CS[C@@H]21.[Na+]` was 1.6e-06

###

Settings: in n-pentanol, 283.15 K
Recorded endpoint: solubility (mole fraction)
# answer = number (no unit)

Recorded solubility (mole fraction) (compound `CO[C@@]1(NC(=O)CSCC#N)C(=O)N2C(C(=O)[O-])=C(CSc3nnnn3C)CS[C@@H]21.[Na+]` ): 3.94e-05

###

Details: in ethyl acetate, 293.15 K
Recorded endpoint: solubility (mole fraction)
Answer using only a numeral; do not append any unit.

molecule `CO[C@@]1(NC(=O)CSCC#N)C(=O)N2C(C(=O)[O-])=C(CSc3nnnn3C)CS[C@@H]21.[Na+]` , solubility (mole fraction) observed: 8.61e-05

###

Conditions: in n-butyl acetate, 278.15 K
Recorded endpoint: solubility (mole fraction)
Provide a numeric answer; units are not to be included.

Memo: `CO[C@@]1(NC(=O)CSCC#N)C(=O)N2C(C(=O)[O-])=C(CSc3nnnn3C)CS[C@@H]21.[Na+]` , reported solubility (mole fraction): 3.86e-05

###

Details: in cyclohexane, 298.15 K
Recorded endpoint: solubility (mole fraction)
Keep it simple and answer with nothing but the number.

The recorded solubility (mole fraction) for entry `CO[C@@]1(NC(=O)CSCC#N)C(=O)N2C(C(=O)[O-])=C(CSc3nnnn3C)CS[C@@H]21.[Na+]` equals 3.1e-06

###

Details: in n-hexane, 293.15 K
Recorded endpoint: solubility (mole fraction)

Record `CO[C@@]1(NC(=O)CSCC#N)C(=O)N2C(C(=O)[O-])=C(CSc3nnnn3C)CS[C@@H]21.[Na+]` , field solubility (mole fraction): 2.98e-06

###

Conditions: in ethanol, 288.15 K
Recorded endpoint: solubility (mole fraction)

Briefly, solubility (mole fraction) measured for `CO[C@@]1(NC(=O)CSCC#N)C(=O)N2C(C(=O)[O-])=C(CSc3nnnn3C)CS[C@@H]21.[Na+]` : 0.000542

###

Conditions: in isopropanol, 283.15 K
Recorded endpoint: solubility (mole fraction)
Please give only the number in your answer, with no unit.

For reference, reported solubility (mole fraction) for `CO[C@@]1(NC(=O)CSCC#N)C(=O)N2C(C(=O)[O-])=C(CSc3nnnn3C)CS[C@@H]21.[Na+]` stands at 7.58e-05

###

Conditions: in ethyl acetate, 303.15 K
Recorded endpoint: solubility (mole fraction)

Briefly, solubility (mole fraction) measured for `CO[C@@]1(NC(=O)CSCC#N)C(=O)N2C(C(=O)[O-])=C(CSc3nnnn3C)CS[C@@H]21.[Na+]` : 0.000137

###

Conditions: in n-butyl acetate, 288.15 K
Recorded endpoint: solubility (mole fraction)
Note: the reply should be a number with no unit written.

What the record says about `CO[C@@]1(NC(=O)CSCC#N)C(=O)N2C(C(=O)[O-])=C(CSc3nnnn3C)CS[C@@H]21.[Na+]` : solubility (mole fraction) is 5.19e-05

###

Conditions: in n-propanol, 293.15 K
Recorded endpoint: solubility (mole fraction)
Answer with the value's number alone.

Measured solubility (mole fraction), `CO[C@@]1(NC(=O)CSCC#N)C(=O)N2C(C(=O)[O-])=C(CSc3nnnn3C)CS[C@@H]21.[Na+]` : 0.000105

###

Conditions: in ethanol, 293.15 K
Recorded endpoint: solubility (mole fraction)
Give the figure by itself; no unit, no explanation.

Record `CO[C@@]1(NC(=O)CSCC#N)C(=O)N2C(C(=O)[O-])=C(CSc3nnnn3C)CS[C@@H]21.[Na+]` . Reported solubility (mole fraction): 0.000599

###

Conditions: in n-butyl acetate, 313.15 K
Recorded endpoint: solubility (mole fraction)
// keep it numeric: no unit symbol after the value

Just so you know, measured solubility (mole fraction) for `CO[C@@]1(NC(=O)CSCC#N)C(=O)N2C(C(=O)[O-])=C(CSc3nnnn3C)CS[C@@H]21.[Na+]` came out at 0.000124

###

Conditions: in n-propanol, 283.15 K
Recorded endpoint: solubility (mole fraction)
Just the number.

Lab note: `CO[C@@]1(NC(=O)CSCC#N)C(=O)N2C(C(=O)[O-])=C(CSc3nnnn3C)CS[C@@H]21.[Na+]` gave solubility (mole fraction) of 7.02e-05

###

Conditions: in isopropanol, 308.15 K
Recorded endpoint: solubility (mole fraction)
Answer as a number with no unit attached.

Data point: `CO[C@@]1(NC(=O)CSCC#N)C(=O)N2C(C(=O)[O-])=C(CSc3nnnn3C)CS[C@@H]21.[Na+]` ; solubility (mole fraction) = 0.00021

###

Details: in n-butanol, 303.15 K
Recorded endpoint: solubility (mole fraction)
Respond using a number only.

Notebook: `CO[C@@]1(NC(=O)CSCC#N)C(=O)N2C(C(=O)[O-])=C(CSc3nnnn3C)CS[C@@H]21.[Na+]` , solubility (mole fraction) read as 0.000124

###

Settings: in isopropanol, 298.15 K
Recorded endpoint: solubility (mole fraction)

solubility (mole fraction) in this record for `CO[C@@]1(NC(=O)CSCC#N)C(=O)N2C(C(=O)[O-])=C(CSc3nnnn3C)CS[C@@H]21.[Na+]` : 0.00014

###

Conditions: in n-butyl acetate, 303.15 K
Recorded endpoint: solubility (mole fraction)
Answer as a number with no unit attached.

Kindly note the recorded solubility (mole fraction) for `CO[C@@]1(NC(=O)CSCC#N)C(=O)N2C(C(=O)[O-])=C(CSc3nnnn3C)CS[C@@H]21.[Na+]` , which is 8.96e-05

###

Conditions: in n-butyl acetate, 283.15 K
Recorded endpoint: solubility (mole fraction)
// no unit, no text: just the number

`CO[C@@]1(NC(=O)CSCC#N)C(=O)N2C(C(=O)[O-])=C(CSc3nnnn3C)CS[C@@H]21.[Na+]` has a reported solubility (mole fraction) of 4.39e-05

###

Details: in n-propanol, 313.15 K
Recorded endpoint: solubility (mole fraction)
# respond with the number and nothing more

solubility (mole fraction) measured on `CO[C@@]1(NC(=O)CSCC#N)C(=O)N2C(C(=O)[O-])=C(CSc3nnnn3C)CS[C@@H]21.[Na+]` = 0.000244

###

Conditions: in n-propanol, 308.15 K
Recorded endpoint: solubility (mole fraction)

// field: solubility (mole fraction); key: `CO[C@@]1(NC(=O)CSCC#N)C(=O)N2C(C(=O)[O-])=C(CSc3nnnn3C)CS[C@@H]21.[Na+]` ; value = 0.000191

###

Conditions: in isopropanol, 278.15 K
Recorded endpoint: solubility (mole fraction)
Answer with a number only.

The compound listed as `CO[C@@]1(NC(=O)CSCC#N)C(=O)N2C(C(=O)[O-])=C(CSc3nnnn3C)CS[C@@H]21.[Na+]` has a reported solubility (mole fraction) of 6.74e-05
